Where do the numbers come from? From the NIST ThermoML archive (doi:10.1016/j.jct.2019.01.001).

CONDITION_SET: 293.15 K; 101.33 kPa; Liquid; Vibrating tube method
PARAMETER: mass density (kg/m3)
// return numeric value only (unit: kg/m3, not printed)

[
  {
    "MOLECULE": "O",
    "mass density [kg/m3]": 998.5
  },
  {
    "MOLECULE": "CCn1cc[n+](C)c1.F[B-](F)(F)F [1-ethyl-3-methylimidazolium tetrafluoroborate]",
    "mass density [kg/m3]": 1283
  }
]

Q: Please report mass density for the following molecule: CC(=O)CC(C)C
Result: 800.9

Q: Give the measured mass density for CCCC(C)O (stereo not given)
Result: 810.1

Q: Assign mass density to the following record: CO
Result: 791.9
